// provenance: the supplement of paper PMC10065799

Could you please report measured phosphorylation enrichment for the items listed next?
- test-system: FGFR1 (UniProt P11362)
- Sequence (P11362 whole entry, looked up): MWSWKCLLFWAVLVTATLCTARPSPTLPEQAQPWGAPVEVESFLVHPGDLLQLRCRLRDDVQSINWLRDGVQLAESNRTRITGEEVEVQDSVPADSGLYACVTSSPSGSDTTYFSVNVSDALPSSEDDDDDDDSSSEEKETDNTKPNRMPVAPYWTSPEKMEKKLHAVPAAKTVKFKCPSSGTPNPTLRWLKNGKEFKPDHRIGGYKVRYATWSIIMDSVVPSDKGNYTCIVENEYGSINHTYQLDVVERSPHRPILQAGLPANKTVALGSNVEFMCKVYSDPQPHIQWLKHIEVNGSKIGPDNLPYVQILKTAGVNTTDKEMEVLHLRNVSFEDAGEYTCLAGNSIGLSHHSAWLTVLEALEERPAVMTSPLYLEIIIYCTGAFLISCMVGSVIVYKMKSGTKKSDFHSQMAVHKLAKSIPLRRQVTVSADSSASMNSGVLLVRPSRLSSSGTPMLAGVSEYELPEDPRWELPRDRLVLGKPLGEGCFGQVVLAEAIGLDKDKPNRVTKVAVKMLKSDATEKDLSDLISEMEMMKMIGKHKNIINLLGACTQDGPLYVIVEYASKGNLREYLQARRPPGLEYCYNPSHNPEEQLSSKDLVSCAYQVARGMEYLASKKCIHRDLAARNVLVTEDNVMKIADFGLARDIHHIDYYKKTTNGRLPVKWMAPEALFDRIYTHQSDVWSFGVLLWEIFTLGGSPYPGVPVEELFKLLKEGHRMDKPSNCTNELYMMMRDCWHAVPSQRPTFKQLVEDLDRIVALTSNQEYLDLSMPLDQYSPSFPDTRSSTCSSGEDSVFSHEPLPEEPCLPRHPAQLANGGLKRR
- run-description: phosphorylation enrichment, bacterial display (enrichment ratio); higher = better substrate or ligand; peptides without Tyr show the background;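 also: 11-residue human phosphosite peptides and single-mutation variants displayed on the E. coli surface, counted by deep sequencing, each peptide's frequency after selection divided by its frequency in the unselected input library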;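 also: frequency after pTyr selection over input frequency; kinase dosed for 20-30% of maximal phosphorylation in three min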
Numbers only.

Reference set (6 entries):
IN: State, in one line, measured phosphorylation enrichment of RAYRRYLLKQK [SCN2A_Y1919]
OUT: 0.489

IN: // fetch phosphorylation enrichment given entry LTDLRYKVSGP
OUT: 0.43

IN: Tell us which phosphorylation enrichment value is on record for LEKRAYICAHP [ACAD9_Y611]
OUT: 0.506

IN: Give me measured phosphorylation enrichment, please, for this sequence: REVKAYGAGLL [TH_Y419_G414R]
OUT: 0.411

IN: Quickly give me recorded phosphorylation enrichment for SSAAGYACLAF [MVD_Y131_YF]
OUT: 0.446

IN: Output measured phosphorylation enrichment for this item: KCCCIYEKPRA [PPP1R11_Y64]
OUT: 0.523

Each sequence below has a reported value. Please supply its phosphorylation enrichment.
1. WDSSGYWTPEE [PAPPA2_Y908_C903W]
2. HSSPVYVGRVV [TGM2_Y219_R214H]
3. LGGAMYFLEAE [PKHD1_Y452_YF]
4. FGCGMYSHLQG [LGR4_Y848_D844G_YF]
5. SKAFAYVHFDS [PABPC5_Y149_G146A_YF]
6. NDEDIYKGLPD [VAV3_Y141]
7. SLDHPYEKPRK [INAVA_Y333]

OUT:
1. 0.855
2. 1.37
3. 0.62
4. 0.795
5. 0.449
6. 0.584
7. 0.339
